- tgt: Amyloid-beta precursor protein (Homo sapiens) (UniProt P05067)
- Sequence (P05067 whole entry): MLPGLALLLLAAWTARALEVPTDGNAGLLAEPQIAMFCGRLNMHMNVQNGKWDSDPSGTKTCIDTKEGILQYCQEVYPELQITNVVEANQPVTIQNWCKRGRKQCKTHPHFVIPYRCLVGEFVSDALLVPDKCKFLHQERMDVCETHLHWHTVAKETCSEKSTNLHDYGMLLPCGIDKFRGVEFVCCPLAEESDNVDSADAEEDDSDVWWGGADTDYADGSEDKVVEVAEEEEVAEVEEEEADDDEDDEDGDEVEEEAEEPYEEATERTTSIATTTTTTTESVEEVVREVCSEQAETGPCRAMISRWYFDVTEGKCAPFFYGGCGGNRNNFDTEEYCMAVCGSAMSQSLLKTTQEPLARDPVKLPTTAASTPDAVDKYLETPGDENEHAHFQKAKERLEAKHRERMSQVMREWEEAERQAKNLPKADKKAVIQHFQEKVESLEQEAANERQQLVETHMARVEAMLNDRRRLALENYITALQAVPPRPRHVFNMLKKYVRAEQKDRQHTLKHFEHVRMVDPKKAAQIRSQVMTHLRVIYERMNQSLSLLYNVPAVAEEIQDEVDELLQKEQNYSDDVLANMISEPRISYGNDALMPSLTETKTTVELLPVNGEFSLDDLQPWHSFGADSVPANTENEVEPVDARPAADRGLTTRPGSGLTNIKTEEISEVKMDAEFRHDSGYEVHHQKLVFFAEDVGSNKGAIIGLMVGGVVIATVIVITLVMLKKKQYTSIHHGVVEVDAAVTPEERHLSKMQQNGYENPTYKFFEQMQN
- experiment-description: Inhibition of HFIP-pretreated amyloid beta (1 to 42) (unknown origin) self-induced aggregation at 10 uM after 24 hrs by thioflavin-T fluorescence assay relative to control
measure: inhibition (%)
# output: bare number, implied unit %

Use these answered entries as a reference point.
Which inhibition is listed for CCN(C)C(=O)Nc1cccc(NC(=O)/C=C/c2ccc(O)c(O)c2)c1 ?
82.5

Which inhibition is listed for CCN(C)C(=O)Nc1cccc(NC(=O)/C=C/c2ccc(O)c(OC)c2)c1 ?
2.2

Which inhibition is listed for CCN(C)C(=O)Oc1cccc(CNC(=O)/C=C/c2ccc(O)c(OC)c2)c1 ?
3.2

New cases:
Which inhibition is listed for CCN(C)C(=O)Oc1cccc(NC(=O)/C=C/c2ccc(O)c(OC)c2)c1 ?
13.2

Which inhibition is listed for CCN(C)C(=O)Oc1cccc(CCNC(=O)/C=C/c2ccc(O)c(O)c2)c1 ?
85.3

Which inhibition is listed for CCN(C)C(=O)Oc1cccc(CCNC(=O)/C=C/c2ccc(O)c(OC)c2)c1 ?
2.2

Which inhibition is listed for CCN(C)C(=O)Oc1cccc(NC(=O)/C=C/c2ccc(O)c(O)c2)c1 ?
73.2

Which inhibition is listed for CCN(C)C(=O)Oc1cccc(CNC(=O)/C=C/c2ccc(O)c(O)c2)c1 ?
77.6

Which inhibition is listed for Nc1c(/N=N/c2ccc(-c3ccc(/N=N/c4cc(S(=O)(=O)O)c5ccccc5c4N)cc3)cc2)cc(S(=O)(=O)O)c2ccccc12 ?
86.5

###

- Organism: Mus musculus
- experiment-description: Cytotoxicity against mouse HT22 cells assessed as reduction in cell viability at 10 uM after 24 hrs by MTT assay
- Format: toxicity, cell-based
- measurement-parameters: ht-22, 24 h
measure: Activity

Which Activity is listed for CCN(C)C(=O)Oc1cccc(NC(=O)/C=C/c2ccc(O)c(OC)c2)c1 ?
Non-Toxic

Which Activity is listed for CCN(C)C(=O)Oc1cccc(CNC(=O)/C=C/c2ccc(O)c(O)c2)c1 ?
Non-Toxic

Which Activity is listed for CCN(C)C(=O)Nc1cccc(NC(=O)/C=C/c2ccc(O)c(OC)c2)c1 ?
Non-Toxic

Which Activity is listed for CCN(C)C(=O)Oc1cccc(CNC(=O)/C=C/c2ccc(O)c(OC)c2)c1 ?
Non-Toxic

New cases:
Which Activity is listed for CCN(C)C(=O)Nc1cccc(NC(=O)/C=C/c2ccc(O)c(O)c2)c1 ?
Non-Toxic

Which Activity is listed for CCN(C)C(=O)Oc1cccc(CCNC(=O)/C=C/c2ccc(O)c(O)c2)c1 ?
Non-Toxic

Which Activity is listed for CCN(C)C(=O)Oc1cccc(NC(=O)/C=C/c2ccc(O)c(O)c2)c1 ?
Non-Toxic

Which Activity is listed for CCN(C)C(=O)Oc1cccc(CCNC(=O)/C=C/c2ccc(O)c(OC)c2)c1 ?
Non-Toxic

###

- tgt: Cholinesterase (Homo sapiens)
- experiment-description: Inhibition of BuChE (unknown origin) at 1 uM using acetylthiocholine iodide as substrate preincubated for 60 mins followed by substrate addition measured after 5 mins by Ellman's method relative to control
Record true (1) whenever inhibition is at 90% or higher; record false (0) when lower.

Take a look at these entries with their results.
Quick check: does CCN(C)C(=O)Oc1cccc([C@H](C)N(C)C)c1 have inhibition greater than or equal to 90%?
false (0)

Quick check: does CCN(C)C(=O)Oc1cccc(NC(=O)/C=C/c2ccc(O)c(OC)c2)c1 have inhibition greater than or equal to 90%?
true (1)

Quick check: does CCN(C)C(=O)Oc1cccc(CCNC(=O)/C=C/c2ccc(O)c(OC)c2)c1 have inhibition greater than or equal to 90%?
false (0)

New cases:
Quick check: does CCN(C)C(=O)Nc1cccc(NC(=O)/C=C/c2ccc(O)c(O)c2)c1 have inhibition greater than or equal to 90%?
false (0)

###

- tgt: Cholinesterase (Homo sapiens) (UniProt P06276)
- Sequence (P06276 whole entry): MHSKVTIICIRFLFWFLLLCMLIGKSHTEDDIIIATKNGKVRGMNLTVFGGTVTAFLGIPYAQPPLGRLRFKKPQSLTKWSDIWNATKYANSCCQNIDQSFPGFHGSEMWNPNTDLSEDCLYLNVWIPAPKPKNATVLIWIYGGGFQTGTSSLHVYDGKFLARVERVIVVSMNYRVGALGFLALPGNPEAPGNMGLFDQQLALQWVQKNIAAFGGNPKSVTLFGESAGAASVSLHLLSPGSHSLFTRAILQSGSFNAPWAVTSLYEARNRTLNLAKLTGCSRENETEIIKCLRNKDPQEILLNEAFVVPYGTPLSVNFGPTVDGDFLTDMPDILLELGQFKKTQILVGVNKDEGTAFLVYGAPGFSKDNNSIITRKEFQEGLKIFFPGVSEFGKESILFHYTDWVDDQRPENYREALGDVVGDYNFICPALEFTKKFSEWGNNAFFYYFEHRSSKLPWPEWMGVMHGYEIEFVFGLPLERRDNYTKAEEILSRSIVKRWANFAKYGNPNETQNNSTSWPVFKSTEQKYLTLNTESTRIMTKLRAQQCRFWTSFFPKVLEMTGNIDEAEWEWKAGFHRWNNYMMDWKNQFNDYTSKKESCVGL
- experiment-description: Inhibition of BuChE (unknown origin) at 5 uM using acetylthiocholine iodide as substrate preincubated for 60 mins followed by substrate addition measured after 5 mins by Ellman's method relative to control
measure: inhibition (%)
# output: bare number, implied unit %

Use these answered entries as a reference point.
Form field - read-out: inhibition; system: Cholinesterase (Homo sapiens) (UniProt P06276); submitted item: CCN(C)C(=O)Oc1cccc(CCNC(=O)/C=C/c2ccc(O)c(O)c2)c1
92

Form field - read-out: inhibition; system: Cholinesterase (Homo sapiens) (UniProt P06276); submitted item: CCN(C)C(=O)Oc1cccc(NC(=O)/C=C/c2ccc(O)c(O)c2)c1
91

Form field - read-out: inhibition; system: Cholinesterase (Homo sapiens) (UniProt P06276); submitted item: CCN(C)C(=O)Oc1cccc(CNC(=O)/C=C/c2ccc(O)c(O)c2)c1
97

Form field - read-out: inhibition; system: Cholinesterase (Homo sapiens) (UniProt P06276); submitted item: CCN(C)C(=O)Oc1cccc(NC(=O)/C=C/c2ccc(O)c(OC)c2)c1
98.3

Form field - read-out: inhibition; system: Cholinesterase (Homo sapiens) (UniProt P06276); submitted item: CCN(C)C(=O)Nc1cccc(NC(=O)/C=C/c2ccc(O)c(OC)c2)c1
36.6

Form field - read-out: inhibition; system: Cholinesterase (Homo sapiens) (UniProt P06276); submitted item: CCN(C)C(=O)Nc1cccc(NC(=O)/C=C/c2ccc(O)c(O)c2)c1
24.4

New cases:
Form field - read-out: inhibition; system: Cholinesterase (Homo sapiens) (UniProt P06276); submitted item: CCN(C)C(=O)Oc1cccc(CNC(=O)/C=C/c2ccc(O)c(OC)c2)c1
97.9

Form field - read-out: inhibition; system: Cholinesterase (Homo sapiens) (UniProt P06276); submitted item: CCN(C)C(=O)Oc1cccc([C@H](C)N(C)C)c1
93

Form field - read-out: inhibition; system: Cholinesterase (Homo sapiens) (UniProt P06276); submitted item: CCN(C)C(=O)Oc1cccc(CCNC(=O)/C=C/c2ccc(O)c(OC)c2)c1
96.6

###

- tgt: Cholinesterase (Homo sapiens) (UniProt P06276)
- experiment-description: Inhibition of BuChE (unknown origin) at 1 uM using acetylthiocholine iodide as substrate preincubated for 60 mins followed by substrate addition measured after 5 mins by Ellman's method relative to control
measure: inhibition (%)
# output: bare number, implied unit %

Which inhibition is listed for CCN(C)C(=O)Oc1cccc(NC(=O)/C=C/c2ccc(O)c(O)c2)c1 ?
49.6

Which inhibition is listed for CCN(C)C(=O)Nc1cccc(NC(=O)/C=C/c2ccc(O)c(OC)c2)c1 ?
19.4

Which inhibition is listed for CCN(C)C(=O)Oc1cccc(CNC(=O)/C=C/c2ccc(O)c(O)c2)c1 ?
80.8

New cases:
Which inhibition is listed for CCN(C)C(=O)Oc1cccc(CCNC(=O)/C=C/c2ccc(O)c(O)c2)c1 ?
76.3
